Assay: CCTE_Mundy_HCI_Cortical_NOG_NeuronCount: CCTE's Neurite Outgrowth Assay in rat cortical cells for Neuron Count, Mundy Lab (AID 2284236);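 further: neurons counted by imaging betaIII-tubulin and Hoechst stained cortical cells; cells exposed to compound for about 48 hours before fixation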
Records with an inconclusive call do not appear. Activity calls are given as the source filed them. How the source made its calls: active means hit-call score of the fitted dose curve at least 0.9, where 1 is the maximum; inconclusive means response in the unintended direction; inactive means score below 0.9.
Classes used: active, inactive

INSERT INTO assay_data (structure_as_smiles, assigned_category) VALUES
  ('Cn1cc[nH]c1=S', 'inactive'),
  ('c1ccc2cc3ccccc3cc2c1', 'inactive'),
  ('COc1cc2c(c(OC)c1OC)-c1ccc(OC)c(=O)cc1[C@@H](NC(C)=O)CC2', 'active'),
  ('NC(=O)N1c2ccccc2C=Cc2ccccc21', 'inactive');

----------
Read-out: Interferon-gamma inducible Protein 10 (IP10), CXCL10 (gene 3627)
Assay: BSK_hDFCGF_IP10: BioMAP Diversity Plus: hDFCGF Assay for Interferon-gamma inducible Protein 10 (IP10) Biomarker Activity (AID 2283053)
Details: primary human foreskin fibroblasts; actives raise or lower the signal
Calls of active or inactive are those of the source. The calls were made as follows: active = hit-call score of the fitted dose curve at least 0.9, where 1 is the maximum; inactive = score below 0.9.
ATTRIBUTE MEASURED: AC50

INSERT INTO measurements (compound, reported_value) VALUES
  ('COc1cc(C(C)C)c2c(c1)S(=O)(=O)N(COc1cc(=O)n3cccc(OCCN4CCCCC4)c3n1)C2=O', '6.1 µM (active)'),
  ('Cc1cccc(O)c1C', 'inactive'),
  ('O=S(=O)(O)c1ccc(N=Nc2c(O)ccc3cc(S(=O)(=O)O)ccc23)cc1', 'inactive'),
  ('NCC(F)(F)C(F)(F)C(F)(F)C(F)(F)F', 'inactive'),
  ('O=C(O)c1cccc(C[C@@H]2COc3ccc(OCc4nc5cc(F)ccc5s4)cc3[C@@H]2O)c1', 'inactive'),
  ('OCC(CO)(CO)CO', 'inactive'),
  ('Nc1ccn([C@@H]2O[C@H](CO)[C@@H](O)[C@@H]2O)c(=O)n1', 'inactive'),
  ('Cn1cc[nH]c1=S', 'inactive'),
  ('FC(F)C(F)(F)COCC1CO1 (stereo not drawn)', 'inactive'),
  ('O=c1[nH]cnc2c1ncn2[C@H]1CC[C@@H](CO)O1', 'inactive'),
  ('Cc1nc(-c2ccccn2)ncc1C(=O)Nn1cc(C)c2cc(F)ccc21', 'inactive'),
  ('CCCCCOC(C)=O', 'inactive'),
  ('O=C(O)[C@H](O)[C@@H](O)C(=O)O', 'inactive');

----------
Assay: CCTE_Mundy_HCI_Cortical_NOG_BPCount: CCTE's Neurite Outgrowth Assay in rat cortical cells for Branch Point Count, Mundy Lab (AID 2284237);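 on AC50: branch points counted about two days after chemical exposure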
The source made the active and inactive calls. Rule for the calls: active = hit-call score of the fitted dose curve at least 0.9, where 1 is the maximum; inactive = score below 0.9.
ATTRIBUTE MEASURED: AC50

INSERT INTO results (structure_as_smiles, reported_value) VALUES
  ('c1ccc2cc3ccccc3cc2c1', 'inactive'),
  ('C[C@]12C=CC(=O)C=C1CC[C@H]1[C@@H]3C[C@@H](O)[C@](O)(C(=O)CO)[C@@]3(C)C[C@H](O)[C@@]12F', '20.1 µM (active)'),
  ('CCCC(CCC)C(=O)O', 'inactive'),
  ('COc1cc2c(c(OC)c1OC)-c1ccc(OC)c(=O)cc1[C@@H](NC(C)=O)CC2', '0.00988 µM (active)'),
  ('OC(Cn1cncn1)(Cn1cncn1)c1ccc(F)cc1F', 'inactive'),
  ('Cn1cc[nH]c1=S', 'inactive');

Measured values drawn from PubChem BioAssay (EPA / NIEHS) for this set.
